Provide the reported growth of each item.
- System: SN12C renal
- Test description: NCI-60 one-dose screen, 48 h (100 = growth as untreated, 0 = no growth, -100 = all killed)
- Assay setup: 10 µM unless noted
This is part of a sample that, as a whole, favours compounds with a hit. Of some 83,000 tested, about 20% had one in any assay.
One number for each entry, in %.

Please review the following examples before continuing.
CCOC(=O)P(=O)(OCC)OCC = 101
N#CCC(=O)c1ccccc1 = 109
CC1(C)C=Cc2c(ccc3c2[N+]([O-])=C2C3=C[C@@]34NC(=O)[C@]5(CCCN5C3=O)C[C@@H]4C2(C)C)O1 = 30.7

Look up growth for the entries below, preserving their order.
1. CC1(C)N(Nc2ccccc2)C(=O)C2CCCN21 (centres undefined)
2. O=C1c2ccccc2C(=O)N1N1CC1c1ccccc1 (centres undefined)
3. CN1CCN(c2ccc(Cl)cc2)CC1
4. CC1(C)CN=C(NN=C(/C=C/c2ccc(C(F)(F)F)cc2)/C=C/c2ccc(C(F)(F)F)cc2)NC1
5. CCCCCCCCCCCCCCCCCC1OCC(COC(=O)O[C@@H](C(=O)O[C@H]2C[C@@]3(O)[C@@H](OC(=O)c4ccccc4)[C@@H]4[C@]5(OC(C)=O)CO[C@@H]5C[C@H](O)[C@@]4(C)C(=O)[C@H](OC(C)=O)C(=C2C)C3(C)C)[C@@H](NC(=O)c2ccccc2)c2ccccc2)O1 (some centres undefined)
6. COc1ccc2c(c1)C1(C)CCN(C)CC(C1)C2O (centres undefined)

## Result
1. 91.5
2. 104
3. 90.7
4. -74.3
5. 44.8
6. 99.3

====

- System: MALME-3M melanoma
- Test description: NCI-60 one-dose screen, 48 h (100 = growth as untreated, 0 = no growth, -100 = all killed)
- Assay setup: 10 µM unless noted
Compounds without any hit were thinned out: in the full panel of roughly 83,000, 20% have a hit.
# if value of growth reaches 80%, tag satisfied; if it stays below, tag not satisfied

CC1(C)N(Nc2ccccc2)C(=O)C2CCCN21 (centres undefined) = satisfied

## Task Evaluate `C[C@]12C[C@H](c3ccoc3)OC(=O)[C@H]1CC[C@@]1(C)[C@@H]2[C@H]2C=C[C@]1(O)C(=O)O2` : growth at minimum 80%?
## Result satisfied

## Task Dear colleague, could you confirm whether `CN(C)c1ccc(C=C2C(=O)NC(=O)NC2=O)cc1` has growth at or above 80%?
## Result satisfied

## Task Can `COc1ccc(N)cc1N` be said to have growth at or above 80%?
## Result satisfied

## Task Does the compound `CC[C@H](C)[C@H](NC(=O)[C@H]1CCCCN1C)C(=O)N(C)[C@H](C[C@@H](OC(C)=O)c1cccc(C(=O)N[C@@H](Cc2ccccc2)C[C@H](C)C(=O)OC)n1)C(C)C` have recorded growth that is 80% or more?
## Result not satisfied

## Task Does `CC[C@H](C)[C@H](NC(=O)c1cnccn1)C(=O)N(C)[C@H](C[C@@H](OC(C)=O)c1nc(C(=O)N[C@@H](Cc2ccccc2)C[C@H](C)C(=O)OC)cs1)C(C)C` have a reported growth of at least 80%?
## Result not satisfied

## Task Does CN1C2CCC1[C@@H](COC(=O)c1ccccc1)[C@@H](O)C2 (some centres undefined) have a reported growth of at least 80%?
## Result satisfied

## Task Is growth for `Cc1ccc(N2CCN(CCC#N)CC2)cc1` at or above 80%?
## Result not satisfied
